These data points were gathered from PubChem BioAssay AID1963867.

system: KRAS-mutant PDC tumor spheroid with HUVEC/MSC, viability; assay: Anticancer human tumor 327498-153-R-J2-PDC patient-derived uterine carcinosarcoma cell line growth inhibition [KRAS2]; settings: second compound 3.16 µM; first compound 1 µM; active = viability on the fitted dose curve at most 10% of control; inactive = the rest;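 note: spheroids exposed to agents for seven days before reading; 100% = DMSO vehicle wells so lower means fewer viable cells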
Tick one outcome: 1 (yes) for active, 0 (no) for inactive

Solved cases below.
- MOLECULE: "COc1cc(Nc2ncc3c(n2)-c2ccc(Cl)cc2C(c2c(F)cccc2OC)=NC3)ccc1C(=O)O + CNCc1ccccc1-c1csc(C(C)Nc2nc(C)nc3cc(OC)c(OC)cc23)c1"
  CLASSIFICATION: "1 (yes)"
- MOLECULE: "CC1(C)CCC(CN2CCN(c3ccc(C(=O)NS(=O)(=O)c4ccc(NCC5CCOCC5)c([N+](=O)[O-])c4)c(Oc4cnc5[nH]ccc5c4)c3)CC2)=C(c2ccc(Cl)cc2)C1 + C=CC(=O)N1CCN(c2nc(=O)n(-c3c(C)ccnc3C(C)C)c3nc(-c4c(O)cccc4F)c(F)cc23)C(C)C1"
  CLASSIFICATION: "0 (no)"
- MOLECULE: "CC1(C)CCC(CN2CCN(c3ccc(C(=O)NS(=O)(=O)c4ccc(NCC5CCOCC5)c([N+](=O)[O-])c4)c(Oc4cnc5[nH]ccc5c4)c3)CC2)=C(c2ccc(Cl)cc2)C1 + CNCc1ccccc1-c1csc(C(C)Nc2nc(C)nc3cc(OC)c(OC)cc23)c1"
  CLASSIFICATION: "1 (yes)"

Name the outcome recorded for CCN1CCN(Cc2ccc(Nc3ncc(F)c(-c4cc(F)c5nc(C)n(C(C)C)c5c4)n3)nc2)CC1 + CNCc1ccccc1-c1csc(C(C)Nc2nc(C)nc3cc(OC)c(OC)cc23)c1 in the assay.
1 (yes)
